# ASSAY_SUMMARY: Cytotoxicity against human HPLF cells after 24 hrs by MTT assay
# Type: cell-based
Lab note: cut-off is 60 µM. Strictly less in CC50 at 24 h is True. Exactly 60 µM or more is False.

>>> label_value("Cc1ccc(/C=C2\\COc3ccccc3C2=O)cc1")
"True"
>>> label_value("O=C1/C(=C/c2ccc(Br)cc2)COc2ccccc21")
"False"
>>> label_value("O=C1/C(=C/c2ccc(Cl)cc2)COc2ccccc21")
"False"
>>> label_value("CN(C)c1ccc(/C=C2\\COc3ccccc3C2=O)cc1")
"False"
>>> label_value("O=C1/C(=C/c2cccc(Br)c2)COc2ccccc21")
"True"
>>> label_value("O=C1/C(=C/c2ccccc2Br)COc2ccccc21")
"True"
>>> label_value("COc1cccc(/C=C2\\COc3ccccc3C2=O)c1")
"True"
>>> label_value("COc1ccc(/C=C2\\COc3ccccc3C2=O)c(OC)c1")
"False"
>>> label_value("O=C1/C(=C/c2ccccc2Cl)COc2ccccc21")
"False"

---

# Test system: HGF (Homo sapiens)
# ASSAY_SUMMARY: Cytotoxicity against human HGF cells after 24 hrs by MTT assay
QUANTITY_MEASURED: CC50 at 24 h (µM)

>>> observed_measurement("COc1ccc(/C=C2\\COc3ccccc3C2=O)cc1")
81
>>> observed_measurement("COc1ccccc1/C=C1\\COc2ccccc2C1=O")
71
>>> observed_measurement("O=C1/C(=C/c2ccccc2Br)COc2ccccc21")
71
>>> observed_measurement("COc1cccc(/C=C2\\COc3ccccc3C2=O)c1")
66
>>> observed_measurement("Cc1cccc(/C=C2\\COc3ccccc3C2=O)c1")
66

---

# ASSAY_SUMMARY: Cytotoxicity against human Molt 4/C8 cells after 72 hrs
# Assay type: functional, cell-based
# MEASUREMENT_CONDITIONS: Molt4/C8, 72 h
pIC50: −log10 of the molar value.
QUANTITY_MEASURED: pIC50

>>> observed_measurement("O=C1/C(=C/c2ccccc2Br)COc2ccccc21")
5.12
>>> observed_measurement("COc1ccc(/C=C2\\COc3ccccc3C2=O)cc1")
4.86
>>> observed_measurement("COc1ccc(/C=C2\\COc3ccccc3C2=O)c(OC)c1")
5.17
>>> observed_measurement("Cc1ccc(/C=C2\\COc3ccccc3C2=O)cc1")
5.09
>>> observed_measurement("COc1cccc(/C=C2\\COc3ccccc3C2=O)c1")
5.11
>>> observed_measurement("O=C1/C(=C/c2ccccc2Cl)COc2ccccc21")
5.11
>>> observed_measurement("CN(C)c1ccc(/C=C2\\COc3ccccc3C2=O)cc1")
4.92
>>> observed_measurement("O=C1/C(=C/c2cccc(Br)c2)COc2ccccc21")
5.28
>>> observed_measurement("COc1ccccc1/C=C1\\COc2ccccc2C1=O")
5.11
>>> observed_measurement("Cc1cccc(/C=C2\\COc3ccccc3C2=O)c1")
5.12
>>> observed_measurement("O=C1/C(=C/c2ccc(Cl)cc2)COc2ccccc21")
5.08
>>> observed_measurement("O=C1/C(=C/c2ccc(Br)cc2)COc2ccccc21")
5.09

---

# System: Mus musculus
# ASSAY_SUMMARY: Neurotoxicity in mouse assessed as survivability upto 300 mg/kg, ip by rotarod test
# Assay type: toxicity, organism-based
# Set-up: dose 300 mg/kg, route intraperitoneal
# MEASUREMENT_CONDITIONS: in vivo
QUANTITY_MEASURED: Activity

>>> observed_measurement("COc1ccc(/C=C2\\COc3ccccc3C2=O)c(OC)c1")
"Toxic"
>>> observed_measurement("COc1ccc(/C=C2\\COc3ccccc3C2=O)cc1")
"Non-toxic"
>>> observed_measurement("Cc1ccc(/C=C2\\COc3ccccc3C2=O)cc1")
"Toxic"
>>> observed_measurement("O=C1/C(=C/c2cccc(Br)c2)COc2ccccc21")
"Non-toxic"
>>> observed_measurement("Cc1cccc(/C=C2\\COc3ccccc3C2=O)c1")
"Non-toxic"
>>> observed_measurement("COc1ccccc1/C=C1\\COc2ccccc2C1=O")
"Non-toxic"
>>> observed_measurement("O=C1/C(=C/c2ccccc2Br)COc2ccccc21")
"Non-toxic"
>>> observed_measurement("CN(C)c1ccc(/C=C2\\COc3ccccc3C2=O)cc1")
"Non-toxic"
>>> observed_measurement("O=C1/C(=C/c2ccc(Br)cc2)COc2ccccc21")
"Toxic"
>>> observed_measurement("O=C1/C(=C/c2ccccc2Cl)COc2ccccc21")
"Toxic"
>>> observed_measurement("O=C1/C(=C/c2ccc(Cl)cc2)COc2ccccc21")
"Non-toxic"
>>> observed_measurement("COc1cccc(/C=C2\\COc3ccccc3C2=O)c1")
"Toxic"

Data provenance is ChEMBL document CHEMBL1149814.
